# Test system: nylon wool-passed cells of spleen cells (responder cell; T cells)
# TEST_DETAILS: Inhibitory activity to the mixed lymphocyte culture reaction
# Type: cell-based, rat (Fischer F344 responder; WKY stimulator)
# CONDITION_DESCRIPTION: Rattus norvegicus, T-cell; 0.10 μg/ml test compound; read-out: Inhibition rate
ENDPOINT_LABEL: inhibition at 0.1 µg/mL (%)
State just the number; it will be interpreted in %.

CCC(O)C(C)/C=C/C=C/C1CC2C=CC3CC(C)CC(C)C3C2(C)C(=O)C12C(=O)CNC2=O (centres unmarked) :: -7
CCC(O)C(C)/C=C/C=C/C(O)CC1C=CC2CC(C)CC(C)C2C1(C)C(=O)C1C(=O)NC(OC)C1=O (centres unmarked) :: 12.1
CCC(O)C(C)/C=C/C=C/C1CC2C=CC3CC(C)CC(C)C3C2(C)C(=O)C12C(=O)NC(O)C2=O (centres unmarked) :: 16
CCC(O)C(C)/C=C/C=C/C(O)CC1C=CC2CC(C)CC(C)C2C1(C)C(=O)C1C(=O)CNC1=O (centres unmarked) :: 19.5

Now for a further compound.
Give its inhibition at 0.1 µg/mL value. Item: CCC(O)C(C)/C=C/C=C/C(O)CC1C=CC2CC(C)CC(C)C2C1(C)C(=O)C1C(=O)NC(O)C1=O (centres unmarked)
17.6

---

# Test system: nylon wool-passed cells of spleen cells (responder cell; T cells)
# TEST_DETAILS: Inhibitory activity to the mixed lymphocyte culture reaction
# Type: cell-based, rat (Fischer F344 responder; WKY stimulator)
# CONDITION_DESCRIPTION: Rattus norvegicus, T-cell; 100 μg/ml test compound; read-out: Inhibition rate
ENDPOINT_LABEL: inhibition at 100 µg/mL (%)
Field format: number, assumed %, no unit text.

Worked set:
CCC(O)C(C)/C=C/C=C/C1CC2C=CC3CC(C)CC(C)C3C2(C)C(=O)C12C(=O)NC(O)C2=O (centres unmarked) [Delaminomycin A2] :: 56
CCC(O)C(C)/C=C/C=C/C(O)CC1C=CC2CC(C)CC(C)C2C1(C)C(=O)C1C(=O)NC(O)C1=O (centres unmarked) [Delaminomycin A] :: 96.4
CCC(O)C(C)/C=C/C=C/C1CC2C=CC3CC(C)CC(C)C3C2(C)C(=O)C12C(=O)CNC2=O (centres unmarked) [Delaminomycin C2] :: 99
CCC(O)C(C)/C=C/C=C/C(O)CC1C=CC2CC(C)CC(C)C2C1(C)C(=O)C1C(=O)NC(OC)C1=O (centres unmarked) [Delaminomycin B] :: 93.2

What does the record list as inhibition at 100 µg/mL for CCC(O)C(C)/C=C/C=C/C(O)CC1C=CC2CC(C)CC(C)C2C1(C)C(=O)C1C(=O)CNC1=O (centres unmarked) [Delaminomycin C] ?
96.9

---

# TEST_DETAILS: Acute toxicity (LD50) in ICR mice
# CONDITION_DESCRIPTION: mouse, in vivo, ip, intraperitoneally
ENDPOINT_LABEL: LD50

Look at this compound and give its reported LD50. CCC(O)C(C)/C=C/C=C/C(O)CC1C=CC2CC(C)CC(C)C2C1(C)C(=O)C1C(=O)NC(O)C1=O (stereo not shown) [Delaminomycin A]
> 500 mg/kg

---

# TEST_DETAILS: Solubility
# CONDITION_DESCRIPTION: water, result in words
ENDPOINT_LABEL: Solubility in water

Example cases with answers are listed next.
CCC(O)C(C)/C=C/C=C/C(O)CC1C=CC2CC(C)CC(C)C2C1(C)C(=O)C1C(=O)NC(O)C1=O (centres unmarked) [Delaminomycin A] :: barely soluble in water
CCC(O)C(C)/C=C/C=C/C(O)CC1C=CC2CC(C)CC(C)C2C1(C)C(=O)C1C(=O)CNC1=O (centres unmarked) [Delaminomycin C] :: barely soluble in water
CCC(O)C(C)/C=C/C=C/C1CC2C=CC3CC(C)CC(C)C3C2(C)C(=O)C12C(=O)NC(OC)C2=O (centres unmarked) [Delaminomycin B2] :: barely soluble in water
CCC(O)C(C)/C=C/C=C/C(O)CC1C=CC2CC(C)CC(C)C2C1(C)C(=O)C1C(=O)NC(OC)C1=O (centres unmarked) [Delaminomycin B] :: barely soluble in water

What measured Solubility in water goes with CCC(O)C(C)/C=C/C=C/C1CC2C=CC3CC(C)CC(C)C3C2(C)C(=O)C12C(=O)CNC2=O (centres unmarked) [Delaminomycin C2] ?
barely soluble in water
